- Target system: Coagulation factor X (Homo sapiens)
- Sequence (P00742 41-179 limits assumed): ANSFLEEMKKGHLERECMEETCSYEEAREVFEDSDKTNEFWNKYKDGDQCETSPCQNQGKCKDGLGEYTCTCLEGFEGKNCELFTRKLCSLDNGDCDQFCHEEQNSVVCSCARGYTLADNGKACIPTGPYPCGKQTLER
- Sequence (P00742 235-488 limits assumed): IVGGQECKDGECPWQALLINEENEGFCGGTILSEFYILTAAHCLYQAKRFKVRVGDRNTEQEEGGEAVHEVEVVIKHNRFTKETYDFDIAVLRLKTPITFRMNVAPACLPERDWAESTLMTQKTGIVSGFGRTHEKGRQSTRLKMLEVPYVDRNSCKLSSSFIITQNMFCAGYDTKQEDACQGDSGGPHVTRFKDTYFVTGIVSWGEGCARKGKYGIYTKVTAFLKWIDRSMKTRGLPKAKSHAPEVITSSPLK
Measure name: Ki (nM)
Response body: numeric value in nM, unit text excluded.

Form field Ki, entry Cc1cc2cc(NC(=N/[C@H]3CCCCN(CC(=O)N4CCCC4)C3=O)/C(C#N)=C(\O)OCCCCO)ccc2o1 : 12

====

- Target system: Vitamin K-dependent protein C (Homo sapiens, UniProt P04070)
- Sequence (P04070 43-197 limits assumed): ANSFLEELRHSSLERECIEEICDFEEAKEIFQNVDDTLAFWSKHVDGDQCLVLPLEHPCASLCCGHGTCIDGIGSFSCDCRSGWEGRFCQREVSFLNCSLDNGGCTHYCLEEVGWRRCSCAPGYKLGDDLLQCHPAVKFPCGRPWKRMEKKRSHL
- Sequence (P04070 212-461 limits assumed): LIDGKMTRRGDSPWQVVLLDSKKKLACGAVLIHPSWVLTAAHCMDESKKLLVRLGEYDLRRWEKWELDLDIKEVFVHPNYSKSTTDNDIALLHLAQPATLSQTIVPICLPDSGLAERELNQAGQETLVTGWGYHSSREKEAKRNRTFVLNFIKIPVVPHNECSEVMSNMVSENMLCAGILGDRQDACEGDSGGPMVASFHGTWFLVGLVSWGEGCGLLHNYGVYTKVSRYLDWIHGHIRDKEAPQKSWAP
- Protocol notes: Binding affinity to activated protein C
Measure name: Ki

Form field Ki, entry Cc1cc2cc(NC(=N/[C@H]3CCCCN(CC(=O)N4CCCC4)C3=O)/C(C#N)=C(\O)OCCCCO)ccc2o1 : > 21.5 µM

====

- Target system: Plasminogen (Homo sapiens, UniProt P00747)
- Sequence (P00747 97-580 limits assumed): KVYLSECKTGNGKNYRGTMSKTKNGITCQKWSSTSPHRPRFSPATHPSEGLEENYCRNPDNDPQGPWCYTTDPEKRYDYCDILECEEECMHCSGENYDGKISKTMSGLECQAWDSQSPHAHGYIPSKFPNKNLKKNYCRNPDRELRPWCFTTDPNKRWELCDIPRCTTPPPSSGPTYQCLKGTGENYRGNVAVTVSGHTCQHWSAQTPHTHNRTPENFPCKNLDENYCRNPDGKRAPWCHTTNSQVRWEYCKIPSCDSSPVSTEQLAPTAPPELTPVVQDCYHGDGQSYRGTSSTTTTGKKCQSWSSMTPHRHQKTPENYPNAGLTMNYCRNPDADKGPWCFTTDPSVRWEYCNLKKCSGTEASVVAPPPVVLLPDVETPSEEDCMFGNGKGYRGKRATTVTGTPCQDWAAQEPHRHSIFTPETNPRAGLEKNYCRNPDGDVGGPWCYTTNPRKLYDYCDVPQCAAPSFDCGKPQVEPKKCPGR
- Sequence (P00747 581-810 limits assumed): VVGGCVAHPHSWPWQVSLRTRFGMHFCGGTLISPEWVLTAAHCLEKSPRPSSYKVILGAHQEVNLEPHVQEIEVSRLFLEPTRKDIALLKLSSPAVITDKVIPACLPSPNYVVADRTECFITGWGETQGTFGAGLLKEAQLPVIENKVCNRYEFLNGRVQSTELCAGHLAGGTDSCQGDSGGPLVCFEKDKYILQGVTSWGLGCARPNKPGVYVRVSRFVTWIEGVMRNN
pKi: −log10 of the molar value.
Measure name: pKi

Form field pKi, entry Cc1cc2cc(NC(=N/[C@H]3CCCCN(CC(=O)N4CCCC4)C3=O)/C(C#N)=C(\O)OCCCCO)ccc2o1 : < 4.66
